Test system: Lewis lung carcinoma (LLC) tumour
Method description: Biodistribution in LLC tumour model in vivo
Parameters: species or system C57BL/6 mice
Assay setup: 60 min post injection
Returns Yes if the recorded % ID/g Tumour, mean is greater than or equal to 2 % ID/g, and No otherwise.

compound="NCCCC[C@H](NC(=O)CCN(C1(C(=O)NO)CCCC1)S(=O)(=O)c1ccc(Oc2ccc(F)cc2)cc1)C(=O)N[C@@H](CCCCN)C(=O)N[C@@H](CCCCN)C(=O)N[C@@H](CCCCN)C(=O)N[C@@H](CCCCN)C(=O)NCCOCCOCCOCCNC(=O)COCC(=O)N[C@@H](Cc1ccc(O)c([123I])c1)C(N)=O [Compound 42A]" target_entity="Lewis lung carcinoma (LLC) tumour" class_name=Yes
compound="NC(=O)[C@H](Cc1ccc(O)c([123I])c1)NC(=O)CCOCCOCCOCCOCCOCCOCCOCCOCCOCCOCCOCCNC(=O)CCN(C1(C(=O)NO)CCCC1)S(=O)(=O)c1ccc(Oc2ccc(F)cc2)cc1 [Compound 44A]" target_entity="Lewis lung carcinoma (LLC) tumour" class_name=No
compound="NC(=O)[C@H](CCCCNC(=O)CON=Cc1ccc([18F])cc1)NC(=O)CCOCCOCCOCCOCCOCCOCCOCCOCCOCCOCCOCCNC(=O)CCOCCOCCOCCOCCOCCOCCOCCOCCOCCOCCOCCNC(=O)CCN(C1(C(=O)NO)CCCC1)S(=O)(=O)c1ccc(Oc2ccc(F)cc2)cc1 [Compound 48B]" target_entity="Lewis lung carcinoma (LLC) tumour" class_name=No
compound="O=C(CCN(C1(C(=O)NO)CCCC1)S(=O)(=O)c1ccc(Oc2ccc(F)cc2)cc1)NCCc1ccc(O)c([123I])c1 [Compound 24A]" target_entity="Lewis lung carcinoma (LLC) tumour" class_name=No
compound="NC(=O)[C@H](Cc1ccc(O)c([123I])c1)NC(=O)COCC(=O)NCCOCCOCCOCCNC(=O)[C@H](CCC(=O)O)NC(=O)[C@H](CCC(=O)O)NC(=O)[C@H](CCC(=O)O)NC(=O)[C@H](CCC(=O)O)NC(=O)[C@H](CCC(=O)O)NC(=O)CCN(C1(C(=O)NO)CCCC1)S(=O)(=O)c1ccc(Oc2ccc(F)cc2)cc1 [Compound 38A]" target_entity="Lewis lung carcinoma (LLC) tumour" class_name=No
compound="NC(=O)[C@H](CCCCNC(=O)CON=Cc1ccc([18F])cc1)NC(=O)CCN(C1(C(=O)NO)CCCC1)S(=O)(=O)c1ccc(Oc2ccc(F)cc2)cc1 [Compound 46B]" target_entity="Lewis lung carcinoma (LLC) tumour" class_name=No

The measurements presented in this section are drawn from patent US20070104644A1.
